target.system: T1, Ep-CAM (UniProt P16422 24-265, limits assumed)
T1 construct: Amine coupled to a CM5 chip in the Biacore assays
T1 sequence (looked up): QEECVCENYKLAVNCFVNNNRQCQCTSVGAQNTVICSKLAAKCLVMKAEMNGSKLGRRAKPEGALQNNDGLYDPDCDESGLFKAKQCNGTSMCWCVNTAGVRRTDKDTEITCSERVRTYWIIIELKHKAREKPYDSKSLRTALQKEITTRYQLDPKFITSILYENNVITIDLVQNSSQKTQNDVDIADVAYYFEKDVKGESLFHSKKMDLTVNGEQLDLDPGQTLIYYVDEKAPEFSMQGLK
assay.method.text: Biacore, Fab periplasmic extract
endpoint: binding result

ING-1 light chain L29W (Fab, V domains shown, Fab, periplasmic extract) VH: QIQLVQSGPELKKPGETVKISCKASGYTFTKYGMNWVKQAPGKGLKWMGWINTYTEEPTYGDDFKGRFAFSLETSASTANLQINNLKSEDTATYFCARFGSAVDYWGQGTSVTVSS VL: DIVMTQAAFSNPVTLGTSGSISCRSSKSWLHSNGITYLYWYLQKPGQSPQLLIYQMSNLASGVPDRFSSSGSGTDFTLRISRVEAEDVGVYYCAQNLELPRTFGGGTKLEMKR | no binding
ING-1 light chain S32N (Fab, V domains shown, Fab, periplasmic extract) VH: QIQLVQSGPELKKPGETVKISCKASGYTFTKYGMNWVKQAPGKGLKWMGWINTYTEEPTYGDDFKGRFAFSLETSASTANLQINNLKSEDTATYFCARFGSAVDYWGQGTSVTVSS VL: DIVMTQAAFSNPVTLGTSGSISCRSSKSLLHNNGITYLYWYLQKPGQSPQLLIYQMSNLASGVPDRFSSSGSGTDFTLRISRVEAEDVGVYYCAQNLELPRTFGGGTKLEMKR | no binding
ING-1 light chain R101H (Fab, V domains shown, Fab, periplasmic extract) VH: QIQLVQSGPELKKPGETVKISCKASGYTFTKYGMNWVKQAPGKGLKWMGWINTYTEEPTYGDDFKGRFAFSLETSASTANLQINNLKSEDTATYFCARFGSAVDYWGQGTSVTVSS VL: DIVMTQAAFSNPVTLGTSGSISCRSSKSLLHSNGITYLYWYLQKPGQSPQLLIYQMSNLASGVPDRFSSSGSGTDFTLRISRVEAEDVGVYYCAQNLELPHTFGGGTKLEMKR | no binding
